Target System: Hexosaminidase
Assay Info: In vitro inhibition of lysosomal hexosaminidase (4-MU substrate, purified enzyme from spleen)
Assay type: biochemical
Particulars: Table 3, read-out: Apparent in vitro IC50 value, Hexosaminidase
The compounds listed here are annotated with their IC50.

{"Compound": "CCCCN1C[C@H](O)[C@@H](O)[C@H](O)[C@H]1CO [N-butyl-deoxynojirimycin, reference compound]", "Target System": "Hexosaminidase", "IC50": "> 100 µM"}

Query: I'd like to know its IC50. The compound in question is OC[C@@H]1[C@H](O)[C@H](O)[C@H](O)CN1CCCCCOCC12CC3CC(CC(C3)C1)C2
Response: > 100 µM

----------
Target System: lysosomal alfa-glucosidase (Homo sapiens)
Recorded Metric: IC50
Answer format: number, then unit.

Query: Enter reported IC50 observed with lysosomal alfa-glucosidase (Homo sapiens) for CCCCN1C[C@H](O)[C@@H](O)[C@H](O)[C@H]1CO [N-butyl-deoxynojirimycin, reference compound]
Response: 800 nM

----------
Consider the following IC50 values measured on b-Galactosidase (Homo sapiens, UniProt P16278).
Sequence (P16278 29-677): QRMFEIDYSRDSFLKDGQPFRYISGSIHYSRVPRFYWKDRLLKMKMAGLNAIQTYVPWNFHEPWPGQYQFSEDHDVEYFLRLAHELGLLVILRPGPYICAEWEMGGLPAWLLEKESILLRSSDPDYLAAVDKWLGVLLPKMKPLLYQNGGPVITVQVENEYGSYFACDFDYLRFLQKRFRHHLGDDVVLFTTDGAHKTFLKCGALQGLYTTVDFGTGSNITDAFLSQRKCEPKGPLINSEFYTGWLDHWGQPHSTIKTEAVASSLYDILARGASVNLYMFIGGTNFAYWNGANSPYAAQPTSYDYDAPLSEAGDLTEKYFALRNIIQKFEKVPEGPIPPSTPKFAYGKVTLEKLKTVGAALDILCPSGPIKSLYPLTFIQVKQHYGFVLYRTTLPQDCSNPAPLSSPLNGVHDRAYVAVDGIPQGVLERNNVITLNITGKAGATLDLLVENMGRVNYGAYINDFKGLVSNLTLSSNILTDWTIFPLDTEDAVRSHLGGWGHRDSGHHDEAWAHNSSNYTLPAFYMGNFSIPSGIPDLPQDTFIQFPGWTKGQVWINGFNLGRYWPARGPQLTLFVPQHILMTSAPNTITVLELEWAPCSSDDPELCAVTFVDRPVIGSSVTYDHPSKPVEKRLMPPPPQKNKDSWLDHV

{"Molecule": "OC[C@@H]1[C@H](O)[C@H](O)[C@H](O)CN1CCCCCOCC12CC3CC(CC(C3)C1)C2", "Recorded Metric": "IC50", "Measurement": "> 100 µM"}

Query molecule follows.
Query: Enter reported IC50 observed with b-Galactosidase (Homo sapiens, UniProt P16278) for CCCCN1C[C@H](O)[C@@H](O)[C@H](O)[C@H]1CO [N-butyl-deoxynojirimycin, reference compound]
Response: > 100 µM

----------
Target System: A-Galactosidase (Homo sapiens, UniProt P06280)
Construct: measured with appropriate 4-MU substrates using purified enzymes from spleen; from tissue; host or cells: spleen
Sequence (P06280 32-429): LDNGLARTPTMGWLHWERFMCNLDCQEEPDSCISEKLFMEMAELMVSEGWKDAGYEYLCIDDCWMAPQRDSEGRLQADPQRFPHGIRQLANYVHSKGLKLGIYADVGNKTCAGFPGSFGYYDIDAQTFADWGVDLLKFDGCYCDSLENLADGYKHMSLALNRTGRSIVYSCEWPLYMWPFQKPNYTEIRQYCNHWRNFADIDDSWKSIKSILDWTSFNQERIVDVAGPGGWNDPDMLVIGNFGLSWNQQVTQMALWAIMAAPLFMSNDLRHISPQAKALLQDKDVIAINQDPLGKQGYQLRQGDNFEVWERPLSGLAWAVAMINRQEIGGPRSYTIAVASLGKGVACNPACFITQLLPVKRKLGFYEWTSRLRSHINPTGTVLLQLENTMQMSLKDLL
Assay Info: In vitro inhibition of lysosomal A-galactosidase (4-MU substrate, purified enzyme from spleen)
Type: biochemical
Particulars: Table 3, read-out: Apparent in vitro IC50 value, A-Galactosidase
pIC50: −log10 of the molar value.
Recorded Metric: pIC50

Query: I'd like to know its pIC50. The molecule in question is OC[C@@H]1[C@H](O)[C@H](O)[C@H](O)CN1CCCCCOCC12CC3CC(CC(C3)C1)C2
Response: < 4.00

Data origin, for the record: patent US7528153B2
